Where do the numbers come from? From patent US20230310428A1.

In this section, each of the molecules is paired with its reported pIC50.
system-under-test: various mutants of kinase EGFR (BaF3 cell lines stably transfected with kinase) (Homo sapiens, UniProt P00533, L858R/T790M)
Construct: expressed in transfected cells; host or cells: BaF3
Sequence (P00533 25-1210 T790M/L858R): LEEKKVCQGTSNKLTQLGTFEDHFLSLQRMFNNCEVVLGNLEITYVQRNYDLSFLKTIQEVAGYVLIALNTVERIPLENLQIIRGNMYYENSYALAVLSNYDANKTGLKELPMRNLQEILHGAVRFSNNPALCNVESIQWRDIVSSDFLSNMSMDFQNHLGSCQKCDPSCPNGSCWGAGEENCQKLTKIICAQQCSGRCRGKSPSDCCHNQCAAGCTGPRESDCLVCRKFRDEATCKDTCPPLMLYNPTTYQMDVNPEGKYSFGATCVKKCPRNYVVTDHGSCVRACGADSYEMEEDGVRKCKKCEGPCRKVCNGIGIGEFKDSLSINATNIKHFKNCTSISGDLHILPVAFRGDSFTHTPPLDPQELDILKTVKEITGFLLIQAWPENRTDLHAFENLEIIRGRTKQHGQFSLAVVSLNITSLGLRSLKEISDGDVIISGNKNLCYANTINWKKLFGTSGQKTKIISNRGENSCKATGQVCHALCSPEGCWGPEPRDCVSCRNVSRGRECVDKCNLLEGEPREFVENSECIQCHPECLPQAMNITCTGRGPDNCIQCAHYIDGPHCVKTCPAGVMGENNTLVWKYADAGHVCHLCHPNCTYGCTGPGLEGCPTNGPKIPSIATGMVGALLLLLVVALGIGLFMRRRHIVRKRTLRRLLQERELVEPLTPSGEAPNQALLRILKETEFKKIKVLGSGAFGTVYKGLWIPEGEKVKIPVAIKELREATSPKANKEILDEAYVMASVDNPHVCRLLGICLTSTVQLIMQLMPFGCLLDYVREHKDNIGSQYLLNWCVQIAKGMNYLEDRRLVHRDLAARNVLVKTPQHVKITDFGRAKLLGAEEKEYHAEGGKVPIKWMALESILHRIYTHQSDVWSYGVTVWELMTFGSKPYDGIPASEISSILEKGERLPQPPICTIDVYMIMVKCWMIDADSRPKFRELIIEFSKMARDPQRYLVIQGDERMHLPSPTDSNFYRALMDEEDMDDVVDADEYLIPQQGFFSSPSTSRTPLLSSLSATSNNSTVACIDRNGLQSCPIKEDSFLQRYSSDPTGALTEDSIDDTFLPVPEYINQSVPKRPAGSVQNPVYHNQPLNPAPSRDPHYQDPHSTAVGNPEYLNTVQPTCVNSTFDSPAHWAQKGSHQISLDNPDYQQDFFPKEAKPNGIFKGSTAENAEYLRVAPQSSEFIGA
protocol-description: Growth inhibitory activity of compounds on BaF3 cell lines stably transfected with kinase (MTS, 48 h)
Type: cell-based
settings: BaF3 cell line stably transfected with EGFR L858R/T790M, read-out: L858R/ T790M growth inhibitory activity IC50
pIC50: −log10 of the molar value.

Answered examples (5):
structure	meas-value
CCc1cc(Nc2ncc(C#N)c(Nc3ccc4nccnc4c3N(C)S(C)(=O)=O)n2)ccc1N1CCC(N2CCN(C)CC2)CC1	≥ 7.30
COc1nc(N2CCC(N3CCN(C)CC3)CC2)c(C)cc1Nc1ncc(Br)c(Nc2ccc3nccnc3c2N(C2CC2)S(C)(=O)=O)n1	6.30 to 7.30
COc1cc(N2CCC(N3CCN(C)CC3)CC2)c(C2CC2)cc1Nc1nccc(Nc2ccc3nccnc3c2N(C)S(C)(=O)=O)n1	6.30 to 7.30
CCc1cc(Nc2nc(Nc3ccc4nccnc4c3N(C)S(C)(=O)=O)c3[nH]ccc3n2)c(OC(F)(F)F)cc1N1CCC(N2CCN(C)CC2)CC1	6.30 to 7.30
CCc1cc(Nc2ncc(Br)c(Nc3ccc4nccnc4c3NS(C)(=O)=O)n2)ccc1N1CCC(N2CCN(C)CC2)CC1	≥ 7.30

The molecule listed as "CN1CCN(C2CCN(c3ccc(Nc4nc(Nc5ccc6nccnc6c5N(C)S(C)(=O)=O)c5[nH]ccc5n4)c(OC(F)(F)F)c3)CC2)CC1" shows pIC50 equal to 5.60 to 6.30

---

system-under-test: various mutants of kinase EGFR (BaF3 cell lines stably transfected with kinase) (Homo sapiens, UniProt P00533, L858R/T790M)
Construct: expressed in transfected cells; host or cells: BaF3
protocol-description: Growth inhibitory activity of compounds on BaF3 cell lines stably transfected with kinase (MTS, 48 h)
Type: cell-based
settings: BaF3 cells stably transfected with EGFR L858R/T790M, read-out: IC50, growth inhibition, L858R/T790M
Method: The activity of compounds against various mutants of kinase EGFR was evaluated by their effect of inhibiting growth of BaF3 cell lines stably transfected with kinase. The specific test method was given as follows: […] 3) Compound test: cells were incubated into a 96-well culture plate, the volume of cytosol was 90 µL, and then 10 µL of the compound at each gradient concentration was added. […] OD values at 490 nm were measured by a microplate reader (VARIOSKAN FLASH, Thermo). […]
reported-property: IC50

Answered examples (5):
compound	IC50
C=Cc1cc(Nc2ncc(Br)c(Nc3ccc4nccnc4c3N(C)S(C)(=O)=O)n2)c(OC(F)(F)F)cc1N1CCC(N2CCN(C)CC2)CC1 [Compound I-9]	≤ 50 nM
CCc1cc(Nc2ncc(Cl)c(Nc3ccc4nccnc4c3N(C3CC3)S(C)(=O)=O)n2)c(OC)cc1N1CCN(C)CC1 [Compound I-245]	≤ 50 nM
CCc1cc(Nc2ncc(Br)c(Nc3ccc4nccnc4c3N(C3CC3)S(C)(=O)=O)n2)c(OC)cc1N1CCC(N2CCN(C)CC2)CC1 [Compound I-155]	≤ 50 nM
CCc1cc(Nc2ncc([N+](=O)[O-])c(Nc3ccc4nccnc4c3N(C)S(C)(=O)=O)n2)c(OC)nc1N1CCC(N2CCN(C)CC2)CC1 [Compound I-190]	≤ 50 nM
CCc1cc(Nc2ncc(F)c(Nc3ccc4nccnc4c3N(C)S(C)(=O)=O)n2)c(OC)cc1N1CCC(N(C)C)CC1 [Compound I-184]	≤ 50 nM

Now consider a different compound.
The compound listed as CCc1cc(Nc2ncc(Br)c(Nc3ccc4nccnc4c3N(C)S(=O)(=O)C(F)(F)F)n2)c(OC)cc1N1CCC(N(C)C)C1 (stereo not drawn) [Compound I-128] shows IC50 equal to 50 to 500 nM
